Task for the reader: assign each of the following compounds its reported growth inhibition.
assay: NCI Yeast Anticancer Drug Screen. Data for the sgs1 strain (AID 173);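 note: 0% = growth of vehicle-only control cultures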; conditions: S. cerevisiae sgs1 mutant, at 1.2 µM, stronger effect = higher value
Compounds without any hit were thinned out: in the full panel of roughly 79,000, 15% have a hit.
API: value field is a number in %; no unit string.

Would you mind telling me what growth inhibition value was observed for N#CC(C(=O)Nc1ccccc1)C1=C(Cl)C(=O)c2ccccc2C1=O (stereo unspecified) ?
8

Here is the next compound: `CCOc1ccc2c(c1)c(CC(=O)O)cn2C`
-1

Here is the next compound: `CCOC(=O)C1=C(C(=O)c2ccccc2)C(c2ccccc2[N+](=O)[O-])C(C(=O)c2ccccc2)=C(C(=O)OCC)N1`
-2

Here is the next compound: C=CCC1=C(C)C(OC(=O)/C=C/c2ccccc2)CC1=O (stereo unspecified)
-9

Here is the next compound: `Oc1ccc(NCn2c(=S)sc3ccccc32)cc1`
4

Here is the next compound: `CN(C)CCOc1ccc2c(c1)C/C(=C/c1ncc([N+](=O)[O-])n1C)C2=O`
29

Here is the next compound: `COc1ccc(N=C2C(=O)Nc3ccc(Br)cc32)cc1`
1

Here is the next compound: `CC(C)/C(Cl)=N\OC(=O)Nc1cccc(Cl)c1`
0

Here is the next compound: `Cc1ccc(CCC2=CCCc3c2ccc2ccccc32)cc1`
-5

Here is the next compound: `O=C(Nc1ccccc1)OCCc1ccc(Cl)c(Cl)c1`
-19

Here is the next compound: `Cc1c(C(=O)C(=O)c2ccccc2)c(C)c(C(=O)C(=O)c2ccccc2)c(C)c1C(=O)C(=O)c1ccccc1`
0

----------
Assay: NCI Yeast Anticancer Drug Screen. Data for the mec2-1 strain (AID 157)
Details: S. cerevisiae mec2-1 strain, at 3.7 µM, stronger effect = higher value
Protocol: Growth inhibition of yeast strains with defined genetic alterations is measured as a screen for potential anti-cancer activity. Selected strains with alterations in DNA damage repair or cell cycle control were exposed to compounds and growth inhibition was measured relative to vehicle treated controls. The strain used in this assay is mec2-1
The panel holds about 79,000 compounds, 15% with a hit somewhere; the sample as a whole holds those more often.
Task for the reader: assign each of the following molecules its reported growth inhibition.
API: value field is a number in %; no unit string.

Would you mind telling me what growth inhibition value was observed for `O=C1c2ccccc2-c2n[nH]c3cccc1c23` ?
-38

Here is the next molecule: C(=C\c1ccccc1)/COc1ccccc1C(N1CCOCC1)n1nc2ccccc2n1 (configuration not stated)
-13

Here is the next molecule: `CC(C)[N+]([O-])(CCCNc1c2ccccc2nc2cccc([N+](=O)[O-])c12)C(C)C`
69

Here is the next molecule: `BrCC[P+](c1ccccc1)(c1ccccc1)c1ccccc1`
-63

Here is the next molecule: `CCCCCCCCCC/C=C\C(=O)O`
5

Here is the next molecule: COC1C=COC2(C)Oc3c(C)c(O)c4c(c3C2=O)/C(=N/C2CCC(O)OC2C)C=C(NC(=O)/C(C)=C\C(=O)C2CC2C(O)C(C)C(O)C(C)C(OC(C)=O)C1C)C4=O (configuration not stated)
0

Here is the next molecule: `CCOC(=O)c1cnc2cc(C(F)(F)F)ccc2c1N=[N+]=[N-]`
12

Here is the next molecule: `NCCNc1ccc(NCCN)c2c1C(=O)c1c(O)ccc(O)c1C2=O`
18

Here is the next molecule: `Cc1ccc(NN(NC(=O)OC(C)C)C(=O)OC(C)C)cc1`
5

Here is the next molecule: `COc1ccc(/C=C/C(=O)C(C)(C)Br)cc1`
71

Here is the next molecule: CC(C)=CC(=O)O[C@@H]1CC(C)(C)CC2C3=CCC4[C@]56CC[C@](O)(OC5)C(C)(C)C6CC[C@@]4(C)C3(C)CC[C@]21C(=O)O (some centres not stated)
31

Here is the next molecule: `c1ccc(-c2nc3cccnc3s2)cc1`
-1

Here is the next molecule: `CN=C(N)N/N=C/c1ccc2c(c1)Cc1ccccc1-2`
-4

Here is the next molecule: `CC(C)/C(Cl)=N\OC(=O)Nc1ccc(F)cc1`
10

Here is the next molecule: `O=C1Nc2ccc(Cl)c(I)c2C1=O`
16

Here is the next molecule: `Cc1ccc(N)c(S)c1`
-15

Here is the next molecule: `Cc1ccc(S/N=C\c2ccccc2O)cc1`
3

Here is the next molecule: CCCN(CCC)CC(O)c1cc(-c2ccc(Cl)cc2)nc2c(C)c(Cl)ccc12 (configuration not stated)
-8

Here is the next molecule: FC(F)(F)c1cc(NC(=S)N2c3ccccc3-n3cccc3C2c2cccnc2)cc(C(F)(F)F)c1 (configuration not stated)
-4

Here is the next molecule: `O=C1c2ccccc2C(=O)c2cc(CBr)ccc21`
2

Here is the next molecule: `CC(/C=C/c1ccc(Cl)cc1)=N\NC(=S)NCC(C)C`
-3

Here is the next molecule: `Nc1ccc2c(c1)C(=O)c1cccc(N)c1C2=O`
16

Here is the next molecule: `CC1CCN(CCC(=O)c2ccc(Cl)cc2)CC1`
1

Here is the next molecule: `O=S(=O)(CCCl)c1ccccc1Cl`
8

Here is the next molecule: `Cn1ccnc1Oc1ccc(Cl)cc1`
0

Here is the next molecule: `COC(=O)c1ccc([N+](=O)[O-])c(O)c1`
-23

Here is the next molecule: `O=C(N=Nc1ccccc1Cl)NNc1ccccc1Cl`
1

Here is the next molecule: O=C1C2CC[C@@H]3C(=O)C(Cl)(Cl)[C@@H]3CCC2C1(Cl)Cl (some centres not stated)
6

Here is the next molecule: `O=C(Cc1csc2[n+]1C(=O)/C(=C/c1ccc(Cl)cc1)S2)Nc1ccccc1`
5

Here is the next molecule: CCCCCCCCCCC1CCC(=O)O1 (configuration not stated)
-2

Here is the next molecule: `O=Nc1cccnc1N=O`
28

Here is the next molecule: `O=C1C(=O)c2ccccc2C=C1[N+](=O)[O-]`
5

Here is the next molecule: COc1cc(C2c3cc4c(cc3OC(NNc3ccccc3)C2C)OCO4)cc(OC)c1OC (configuration not stated)
5

Here is the next molecule: CC(C)(CN1CCCCC1)C(=O)CC(SCCS(=O)(=O)O)c1ccc(Br)cc1 (configuration not stated)
6

Here is the next molecule: `c1ccc2c(c1)C(=NCCCN1CCCCCC1)c1cccn1-2`
1

Here is the next molecule: `COc1ccc2nc3c([N+](=O)[O-])ccc(NCCN(C)C)c3c(NCCN(C)C)c2c1`
-4

Here is the next molecule: `O=[N+]([O-])c1cccc2nc3ccccc3c(NCCCN3CCOCC3)c12`
97

Here is the next molecule: `Clc1cccc(C(Nc2nncs2)Nc2nncs2)c1Cl`
4

Here is the next molecule: `O=C(Nc1ccc(Cl)cc1)OCC#CCCl`
3

Here is the next molecule: `C[Si](C)(C)CNC(=O)OCc1ccccc1`
-3

Here is the next molecule: `COc1ccc(/C(C)=N/OC(=O)c2c(-c3ccccc3Cl)noc2C)cc1CN1CCOCC1`
2

Here is the next molecule: COc1ccccc1C(=O)OCC1CCCN2CCCCC12 (configuration not stated)
-6

Here is the next molecule: `O=C1c2ccccc2C(=O)c2c(NC3CCCCC3)ccc(Nc3ccc(S(=O)(=O)O)cc3)c21`
-5

Here is the next molecule: `COc1cc(/C=C2\CCc3ccccc3C2=O)cc(OC)c1OC`
10

Here is the next molecule: CCC(C(=O)O)C1=C(c2ccccc2)CCc2ccccc21 (configuration not stated)
28

Here is the next molecule: `N#CSc1ccc(S(N)(=O)=O)cc1`
-60

Here is the next molecule: `CN(C)c1ccc(C(C#N)=C(C#N)C#N)cc1`
2

----------
Task for the reader: assign each of the following compounds its reported growth inhibition.
assay: NCI Yeast Anticancer Drug Screen. Data for the sgs1 mgt1 strain (AID 161);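 note: 0% = growth of cultures given vehicle only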; details: S. cerevisiae sgs1 mgt1 strain, at 5.0 µM (retest, dose inferred, filed as 0.5), stronger effect = higher value
The panel holds about 79,000 compounds, 15% with a hit somewhere; the sample as a whole holds those more often.
API: value field is a number in %; no unit string.

Would you mind telling me what growth inhibition value was observed for OCC1OC(OCC(O)C(O)C(O)C(/C=N/Nc2ccccc2)=N/Nc2ccccc2)C(O)C(O)C1O (centres undefined) ?
7

Here is the next compound: `Cc1ccc(N)c(S)c1`
-1

Here is the next compound: `COc1ccc(/C=C2\SC(=S)N(/C=C/c3nc4ccccc4[nH]c3=O)C2=O)cc1OC`
-7

Here is the next compound: `Brc1ccc(-c2cc3c(cc2C2SCCS2)OCO3)cc1`
-18

Here is the next compound: `C#CCCCc1ccccc1`
-9

Here is the next compound: `Cc1cc(I)ccc1N`
-1

Here is the next compound: `COc1ccc(/C=C/C(=O)C(C)(C)Br)cc1`
86

Here is the next compound: `NC(=NCc1ccccc1)N/N=C\c1ccnc2ccccc12`
-6

Here is the next compound: `COc1ccc2nc3cccc([N+](=O)[O-])c3c(NCCN(CCO)CCO)c2c1`
78

The reported numbers originate from PubChem BioAssay (NCI).
